tested on: PC-9 (EGFR exon 19 deletion); assay: Cell antiproliferative assay (CTG, 72 h), PC-9; type: cell-based, human; details: Homo sapiens, PC-9, 72 h, Table 2, PC-9 cells
Catalogue of IC50 values

Worked cases, answers included:
{"COMPOUND": "COc1cc(N2CCN(C(=O)CN3CCC(c4ccc(NC5CCC(=O)NC5=O)cc4F)CC3)CC2)ccc1Nc1ncc(Cl)c(Nc2ccccc2)n1 (stereo not drawn) [Compound T-04]", "PROPERTY": "IC50", "MEASURED": "100 to 1000 nM"}
{"COMPOUND": "COc1cc(N2CCN(C(=O)CN3CCN(c4ccc(NC5CCC(=O)NC5=O)cc4)CC3)CC2)ccc1Nc1ncc(Cl)c(Nc2ccccc2C(C)=O)n1 (stereo not drawn) [Compound T-82]", "PROPERTY": "IC50", "MEASURED": "≥ 1000 nM"}
{"COMPOUND": "C=CC(=O)Nc1cc(Nc2nccc(-c3cn(C)c4ccccc34)n2)c(OC)cc1N(C)CCN(C)CC(=O)N1CCC(c2ccc(NC3CCC(=O)NC3=O)cc2)CC1 (stereo not drawn) [Compound T-237]", "PROPERTY": "IC50", "MEASURED": "100 to 1000 nM"}
{"COMPOUND": "CNC(=O)c1ccccc1Nc1nc(Nc2ccc(N3CCN(C(=O)CN4CCC(c5ccc(NC6CCC(=O)NC6=O)cc5)C(F)(F)C4)CC3)cc2OC)ncc1Br (stereo not drawn) [Compound T-313]", "PROPERTY": "IC50", "MEASURED": "10 to 100 nM"}
{"COMPOUND": "COc1cc(C2CCN(C(=O)CN3CCC(c4ccc(NC5CCC(=O)NC5=O)cc4)CC3)CC2)ccc1Nc1ncc(Cl)c(Nc2ccccc2C(C)=O)n1 (stereo not drawn) [Compound T-334]", "PROPERTY": "IC50", "MEASURED": "100 to 1000 nM"}

// lookup IC50 for COc1cc(N2CCN(CCN3CCC(c4ccc(NC5CCC(=O)NC5=O)cc4)CC3)CC2)ccc1Nc1ncc(Cl)c(Nc2ccccc2C(C)=O)n1 (stereo not drawn) [Compound T-182]
100 to 1000 nM
